Experimental system: GMPPNP-bound KRAS G12C protein and cRAF RAS-binding domain (cRAF-RBD) (Homo sapiens, UniProt P01116, G12C)
Construct: made in house; host or cells: E. coli
Sequence (P01116 with tags, fused parts or gaps isoform P01116-2 G12C): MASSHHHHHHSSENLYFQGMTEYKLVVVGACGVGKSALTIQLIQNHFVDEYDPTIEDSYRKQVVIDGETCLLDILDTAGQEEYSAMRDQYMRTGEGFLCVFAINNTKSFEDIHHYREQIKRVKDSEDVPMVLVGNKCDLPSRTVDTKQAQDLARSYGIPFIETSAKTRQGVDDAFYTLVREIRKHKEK
Assay name: Inhibitory activity on interaction between KRAS G12C and cRAF (Alpha technology)
Format: biochemical
Experimental context: GMPPNP-bound KRAS G12C incubated with compound at 25° C. for 1 hour, then cRAF-RBD, Alpha signal; read-out: IC50
Quick reference for IC50 among some compounds
Only the number, expressed in µM, is required.

Recorded IC50, per entry:
Which value of IC50 has been reported for `CO[C@H]1CC[C@H](NC/C=C/C(=O)Nc2ccc(C(=O)c3ccc4c(-c5c(C)cc6c(ncn6C)c5-c5cncnc5)cccn34)cc2C#N)CC1` in the records?
0.26

Also check `CCN(CC)[C@H]1CC[C@H](NC/C=C/C(=O)Nc2ccc(C(=O)Nc3cccc(-c4c(Cl)ccc5c4cnn5C)c3)cc2C#N)CC1`
0.27

Further cases:
// query IC50 value for entry `CCN(CC)[C@H]1CC[C@H](NC/C=C/C(=O)Nc2ccc(C(=O)Nc3cccc(-c4cc5nc6n(c5cc4C(F)(F)F)CCC6)n3)cc2C#N)CC1`
0.012

---

Test system: MIA PaCa-2 cells
Assay name: Growth inhibition activity on KRAS-G12C mutant cell line (MIA PaCa-2)
Type: cell-based
Experimental context: Homo sapiens, 72 h; MIA PaCa-2, 3-day culture, CellTiter-Glo 3D
Property name: IC50 (nM)
Number in nM, nothing else.

As a guide, the following entries are already answered.
API: value(readout=IC50, system=MIA PaCa-2 cells) for record `CO[C@H]1CC[C@H](NC/C=C/C(=O)Nc2ccc(C(=O)c3cn(C)c4c(-c5cc6ncn(C)c6cc5C(F)(F)F)cccc34)cc2C#N)CC1`
88

Also `CO[C@H]1CC[C@H](NC/C=C/C(=O)Nc2ccc(C(=O)c3c[nH]c4c(-c5cc6nc7n(c6cc5C(F)(F)F)CCC7)cccc34)cc2C#N)CC1` ?
39

Let us now turn to `Cn1cnc2c(Cl)c(-c3cccn4c(C(=O)c5ccc(NC(=O)/C=C/CNC(C)(C)C)c(C#N)c5)ccc34)c(Cl)cc21`
140

Same for `COc1cccc(Cl)c1-c1cccn2c(C(=O)c3ccc(NC(=O)/C=C/CN[C@H]4CC[C@H](OC)CC4)c(C#N)c3)ccc12`
370

Also need `CO[C@H]1CC[C@H](NC/C=C/C(=O)Nc2c(F)cc(C(=O)c3ccc4c(-c5cc6ncn(C)c6cc5C)cccn34)cc2F)CC1` , thanks.
280

// switching to the query compound
Return IC50 measured with MIA PaCa-2 cells given this compound: `CN(C)C/C=C/C(=O)Nc1ccc(C(=O)c2ccc3c(-c4cc5ncn(C)c5cc4C(F)(F)F)cccn23)cc1C#N`
240

---

Experimental system: GMPPNP-bound KRAS G12C protein and cRAF RAS-binding domain (cRAF-RBD) (Homo sapiens, UniProt P01116, G12C)
Construct: made in house; host or cells: E. coli
Assay name: Inhibitory activity on interaction between KRAS G12C and cRAF (Alpha technology)
Format: biochemical
Experimental context: GMPPNP-bound KRAS G12C incubated with compound at 25° C. for 1 hour, then cRAF-RBD, Alpha signal; read-out: IC50
Property: IC50; scope: individual molecules
The reply should be a number in nM, with the unit left off.

These solved cases illustrate the format of a correct answer.
What value of IC50 has been reported for the following molecule? COc1ccc(Cl)c(-c2cccc(NC(=O)c3ccc(NC(=O)/C=C/CNC4CCN(S(C)(=O)=O)CC4)c(C#N)c3)c2)c1OC [Example 11]
630

What about CCc1nc2cc(-c3cccc(NC(=O)c4ccc(NC(=O)/C=C/CN(C)C(C)(C)C)c(C#N)c4)c3)c(C(F)(F)F)cc2n1C [Example 2] ?
880

Consider the additional molecule presented here.
Which measured IC50 value corresponds to CO[C@H]1CC[C@H](NC/C=C/C(=O)Nc2ccc(C(=O)c3c[nH]c4c(-c5cc6nc7n(c6cc5C(F)(F)F)CCC7)cccc34)cc2C#N)CC1 [Example 35] ?
19

The values you see were collected from patent US12673041B2.
